Numbers sourced from PubChem BioAssay (NCI).

# System: IGROV1 ovarian
# test_details: NCI tumour cell line growth inhibition, 48 h
observation_type: TGI

compound	observation_type	observed_value
CC1(C)CC(=O)c2c([nH]c(=S)c(C#N)c2-c2ccc(Br)cc2)C1	TGI	> 100 µM

We now examine a further compound.
Query block: Could you please provide reported TGI for CC[C@@]1(O)C(=O)OCc2c1cc1n(c2=O)Cc2cc3c([N+](=O)[O-])c(O)ccc3nc2-1 ? Thanks!
Result block: 17.3 µM

----------
# System: HCC-2998 colon
# test_details: NCI tumour cell line growth inhibition, 48 h; in the data active means GI50 below about 0.43 µM; inactive means the rest
Please state which outcome applies, choosing from active, inactive

compound	class_name
CC(C)C[C@H](NC(=O)[C@H](Cc1ccccc1)NC(=O)c1cnccn1)B(O)O	active
COc1ccc(C(=O)OC2C(OC3C(O)COC(O[C@H]4C[C@H]5[C@@H]6CC=C7C[C@@H](O)CC[C@]7(C)[C@H]6CC[C@]5(C)[C@H]4[C@H](C)C(=O)CCC(C)C)C3OC(=O)C(C)C)OCC(O)C2O)cc1 (some centres not stated)	inactive
CN(Cc1ccccc1)c1ncnc2ccc(Br)cc12	inactive
COc1ccc2c(c1)O/C(=C\c1ccc([N+](=O)[O-])o1)C2=O	inactive
N=C(N)c1ccc(CS(=O)(=O)F)cc1	inactive
N#Cc1c(N)n(C2OC(CO)C(O)C2O)c2ncnc(N)c12 (configuration not stated)	active

Query block: Hi team, can someone confirm the assay call for COc1ccc(C2CC(c3ccc4ccccc4c3)=NN2/C=C2\SC(=S)N(NC(=O)Cc3ccccc3Nc3c(Cl)cccc3Cl)C2=O)cc1 (configuration not stated) ?
Result block: inactive

Query block: Hi team, can someone confirm the assay call for CC[C@]12C=CCN3CC[C@@]4(c5ccc(OC)cc5N(C)[C@H]4[C@@](O)(C(=O)OC)[C@@H]1OC(=O)CCCC[P+](c1ccccc1)(c1ccccc1)c1ccccc1)[C@@H]32 ?
Result block: active

Query block: Hi team, can someone confirm the assay call for CS(=O)(=O)c1nccc(-c2c(-c3cccc(OCc4ccccc4)c3)nc3sccn23)n1 ?
Result block: inactive

Query block: Hi team, can someone confirm the assay call for COc1cc(-c2nn(-c3ccc(NC(=O)Nc4ccc(Cl)c(C(F)(F)F)c4)cc3)cc2-c2ccncc2)ccc1Cl ?
Result block: inactive

Query block: Hi team, can someone confirm the assay call for CN(C)C=O.CN(C)C=O.CN1C(C(=O)Nc2ccccn2)=C([O-])c2ccccc2S1(=O)=O.CN1C(C(=O)Nc2ccccn2)=C([O-])c2ccccc2S1(=O)=O.[Cu+2] ?
Result block: inactive

Query block: Hi team, can someone confirm the assay call for C=CC1CC12C(=O)C1OC2(C)C2C(=O)c3c(O)cccc3C(=O)C12 (configuration not stated) ?
Result block: inactive
